Test system: air pouch prostaglandin biosynthesis (Cox-2)
protocol-notes: Carrageenan induced air pouch prostaglandin biosynthesis model (CAP)
Format: in vivo, rat
conditions-used: 3 mpk, rat
attribute-measured: CAP % Inhib. @ 3 mpk (%)
Answers are plain numbers, in %.

Answered examples (7):
### Prompt Please respond with reported CAP % Inhib. @ 3 mpk (system air pouch prostaglandin biosynthesis (Cox-2)) for CS(=O)(=O)c1ccc(-c2cnn(-c3ccccc3F)c(=O)c2-c2ccc(F)cc2)cc1 [Example 185] .
### Response 53

### Prompt Please respond with reported CAP % Inhib. @ 3 mpk (system air pouch prostaglandin biosynthesis (Cox-2)) for CC(C)(O)COc1c(-c2ccc(S(N)(=O)=O)cc2)cnn(-c2ccc(F)c(F)c2)c1=O [Example 459] .
### Response 45

### Prompt Please respond with reported CAP % Inhib. @ 3 mpk (system air pouch prostaglandin biosynthesis (Cox-2)) for CC(C)CCc1c(-c2ccc(S(C)(=O)=O)cc2)cnn(-c2ccc(F)cc2)c1=O [Example 378] .
### Response 59

### Prompt Please respond with reported CAP % Inhib. @ 3 mpk (system air pouch prostaglandin biosynthesis (Cox-2)) for Cc1cc(-c2c(-c3ccc(S(N)(=O)=O)cc3)cnn(-c3ccc(F)cc3)c2=O)ccc1F [Example 390] .
### Response 60

### Prompt Please respond with reported CAP % Inhib. @ 3 mpk (system air pouch prostaglandin biosynthesis (Cox-2)) for CCCc1ccc(-c2c(-c3ccc(S(C)(=O)=O)cc3)cnn(CC(F)(F)F)c2=O)cc1 [Example 66] .
### Response 0

### Prompt Please respond with reported CAP % Inhib. @ 3 mpk (system air pouch prostaglandin biosynthesis (Cox-2)) for CC(C)(O)COc1c(-c2ccc(S(C)(=O)=O)cc2)cnn(-c2ccc(F)c(F)c2)c1=O [Example 452] .
### Response 71

### Prompt Please respond with reported CAP % Inhib. @ 3 mpk (system air pouch prostaglandin biosynthesis (Cox-2)) for NS(=O)(=O)c1ccc(-c2cnn(-c3ccc(F)c(F)c3)c(=O)c2Oc2ccc(F)cc2)cc1 [Example 388] .
### Response 80

// next entry
### Prompt Please respond with reported CAP % Inhib. @ 3 mpk (system air pouch prostaglandin biosynthesis (Cox-2)) for Cc1cc(-c2c(-c3ccc(S(N)(=O)=O)cc3)cnn(-c3cccc(Cl)c3)c2=O)ccc1F [Example 391] .
### Response 61

====

attribute-measured: melting point

Answered examples (5):
### Prompt Please report the measured melting point for CS(=O)(=O)c1ccc(-c2cnn(-c3cccc(C(F)(F)F)c3)c(=O)c2-c2ccc(Cl)cc2)cc1
### Response 103 to 105 °C

### Prompt Please report the measured melting point for CS(=O)(=O)c1ccc(-c2cnn(CC(F)(F)F)c(=O)c2NCCC#N)cc1
### Response 172 to 174 °C

### Prompt Please report the measured melting point for CC(=O)CCOc1c(-c2ccc(S(C)(=O)=O)cc2)cnn(-c2ccc(F)c(F)c2)c1=O
### Response 134 to 135 °C

### Prompt Please report the measured melting point for CS(=O)(=O)c1ccc(-c2cnn(CC(=O)c3ccc(Cl)cc3)c(=O)c2-c2ccc(F)cc2)cc1
### Response 186 to 188 °C

### Prompt Please report the measured melting point for CS(=O)(=O)c1ccc(-c2cnn(-c3ccc(F)cc3)c(=O)c2Cc2ccc(F)cc2)cc1
### Response 175 to 177 °C

Kindly give each listed record's melting point.
1. CS(=O)(=O)c1ccc(-c2cnn(-c3ccc(Cl)c(F)c3)c(=O)c2-c2ccc(F)cc2)cc1
2. COc1ccc(CCNc2c(-c3ccc(S(C)(=O)=O)cc3)cnn(CC(F)(F)F)c2=O)cc1OC
3. NS(=O)(=O)c1ccc(-c2cnn(CC=C(Cl)Cl)c(=O)c2-c2ccc(F)cc2)cc1

### Response
102 to 110 °C
163 to 165 °C
184 to 185 °C
